The measured values listed here are drawn from PubChem BioAssay.

tgt: Follistatin (Homo sapiens) (UniProt P19883)
Sequence (P19883 whole entry, looked up): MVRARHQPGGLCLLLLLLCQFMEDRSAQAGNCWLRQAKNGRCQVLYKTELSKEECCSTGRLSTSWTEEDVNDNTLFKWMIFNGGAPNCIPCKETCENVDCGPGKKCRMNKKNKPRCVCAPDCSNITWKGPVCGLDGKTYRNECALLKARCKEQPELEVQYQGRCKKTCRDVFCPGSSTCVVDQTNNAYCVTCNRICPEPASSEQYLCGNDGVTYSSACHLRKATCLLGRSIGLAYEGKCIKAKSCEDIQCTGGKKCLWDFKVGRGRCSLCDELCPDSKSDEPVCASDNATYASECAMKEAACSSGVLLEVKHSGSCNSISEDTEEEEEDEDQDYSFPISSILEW
experimental protocol: FST protein binding to printed compounds – biochemical, small-molecule microarray, 635/667 nm fluorescence, primary screen (AID 1132)
applied conditions: 635 nm fluorescence, higher = more signal
measured parameter: composite z-score
Please reply with the number alone, leaving off any unit.

Challenge: Look up composite z-score of COCCCNC(=O)[C@@H]1c2ccccc2C(=O)N(c2ccc(C)cn2)[C@H]1c1ccc(CO)cc1 and report it.
Response given: -1.25

Challenge: Report composite z-score for CCOC(=O)C[C@H]1[C@H](OC(=O)Cc2ccc3c(c2)OCO3)[C@@H](NC(=O)c2ccccc2)c2cc(OCCCO)ccc2N1C(=O)c1ccc2ccccc2n1
Response given: 0.166

Challenge: Read the entry COc1ccc([Si](C)(C)[C@H]2[C@H](CC(=O)N3CCC[C@H]3CO)O[C@@]3(C(=O)N(Cc4ccc(N5C(=O)c6cccc7cccc5c67)cc4)c4ccccc43)[C@@H]2C)cc1 and write its reported composite z-score.
Response given: 1.07

Challenge: State its composite z-score for this molecule: CC1CC/C=C\[C@H]2OC34C=CCN(c5ccc(Cl)cc5)C(=O)[C@H]3N(C(CO)C(C)C)C(=O)[C@]4(C)C2C(=O)O1 (stereo partly drawn)
Response given: -0.648

Challenge: Return composite z-score for the following molecule: C=CC[C@]1(C(=O)NCC(O)CO)N=C(c2ccc(OCCCO)cc2)O[C@H]1c1ccccc1N=[N+]=[N-] (stereo partly drawn)
Response given: 1.1

Challenge: Read the entry O=C1NC(=O)C2C1C=CC(C(O)CCc1ccccc1)N2Nc1ccccn1 (stereo not drawn) and write its reported composite z-score.
Response given: 0.269

Challenge: Input COc1ccccc1CN1C(=O)c2ccccc2[C@@]2(Cc3ccccc3N(C3CC3)C2=O)[C@@H]1c1ccc(CO)cc1 , output reported composite z-score.
Response given: 0.253

Challenge: Fill in reported composite z-score for this entry: C=C[C@H](C)[C@H](OC(=O)Nc1ccc(SC)cc1)c1ccc(O)c2ccccc12
Response given: 1.08

---

experimental protocol: blockers of DNA damage checkpoint Chk1 activation – imaging, HeLa, hydroxyurea, phospho-Chk1 nuclear intensity, primary screen (AID 1187); note: test concentration not given here
applied conditions: hydroxyurea-induced phospho-Chk1 immunofluorescence imaging, higher = more signal
Activity calls are given as the source filed them. No rule for the calls is given here.
Assign z-score to each entry below.

Challenge: Give me measured z-score, please, for this compound: COCCOC(=O)N1C(=O)[C@@]2(c3cc(C#CCCO)ccc31)[C@H](c1ccc(OCCO)cc1)N1[C@H](c3ccccc3)[C@H](c3ccccc3)OC(=O)[C@H]1[C@@H]2C(=O)N1CCc2cc(OC)c(OC)cc2C1
Response given: 0.0256 (inactive)

Challenge: Give the reported z-score for this compound. CCOc1cc(C(O)C2C=CC3C(=O)NC(=O)C3N2Nc2ccccn2)ccc1O (stereo not drawn)
Response given: 0.746 (inactive)

Challenge: State, in one line, measured z-score of COC(=O)c1ccc(OC)c(/C=C\CC(CCc2ccccc2)OC(=O)c2ccncc2)c1 (stereo not drawn)
Response given: 0.459 (inactive)

Challenge: For the compound COCCOC(=O)N1C(=O)[C@@]2(c3cc(C#Cc4ccc(OC)cc4)ccc31)[C@H](C(N)=O)[C@H]1C(=O)O[C@H](c3ccccc3)[C@H](c3ccccc3)N1[C@@H]2c1ccc(OCCO)cc1 , give its measured z-score value.
Response given: 0.239 (inactive)

Challenge: Provide one value: measured z-score of CCCC=C(CCC)[C@@H](NS(=O)(=O)c1cccc2cccnc12)c1ccc(C(=O)OC)cc1
Response given: -0.492 (inactive)

Challenge: Hello, please tell me recorded z-score for this one: C=C[C@@H](O)[C@H]1CC(c2ccccc2)=NO1
Response given: -0.573 (inactive)

Challenge: Given the compound C=C(COC)C(=O)CC[C@H](OC(=O)c1ccccc1-c1ccccc1C(=O)O)c1ccc(OCCO)cc1 , write its reported z-score.
Response given: -0.537 (inactive)

Challenge: Look up and report measured z-score for this entry: COc1ccc(CCNC(=O)[C@@H]2c3ccccc3C(=O)N(Cc3ccccc3)[C@H]2c2ccc(CO)cc2)cc1
Response given: -1.38 (inactive)

Challenge: Note z-score for the compound shown: O=C1C[C@@](C(=O)NCc2ccccc2)(c2ccc([N+](=O)[O-])cc2)[C@@H](c2ccc(CO)cc2I)N1C1CCCCC1
Response given: 0.408 (inactive)

Challenge: Determine its reported z-score: CCCCC(O)C1C=CC2C(=O)N(Cc3ccccc3)C(=O)C2N1n1cnnc1 (stereo not drawn)
Response given: 0.0163 (inactive)

Challenge: Give the measured z-score for CC(C)c1ccc(NN2C(C(O)c3cccs3)C=CC3C(=O)N(c4ccccc4)C(=O)C32)cc1 (stereo not drawn)
Response given: 0.219 (inactive)

Challenge: Identify z-score associated with the compound CC(C)N1C(=O)c2ccccc2[C@](C)(C(=O)O)[C@@H]1c1ccc(CO)cc1
Response given: 0.318 (inactive)

Challenge: Give the reported z-score for this compound. O=[N+]([O-])c1ccc(C[n+]2ccc(-c3ccc(CO)cc3)cc2)o1
Response given: 0.657 (inactive)

Challenge: Please look at this compound and report its z-score: C=CCOC(=O)[C@@H]1[C@H]2C(=O)O[C@H](c3ccccc3)[C@H](c3ccccc3)N2[C@H](c2ccc(OCCOC(=O)[C@@H]3C[C@@H]4C(=O)N[C@@H](CCCCNC(C)=O)C(=O)N4[C@@H]3c3ccc(O)cc3)cc2)[C@@]12C(=O)Nc1ccc(I)cc12
Response given: 0.882 (inactive)

Challenge: Report measured z-score; entry is COCCCNC(=O)[C@@]1(Cc2ccccc2CN=[N+]=[N-])N=C(c2ccc(OCCCO)cc2)O[C@H]1c1ccccc1N=[N+]=[N-]
Response given: -0.475 (inactive)

Challenge: Give the value of z-score reported for the following: COC(=O)[C@@]1(Cc2ccccc2)[C@H]2c3cc(C(=O)N4CCCC4)n(Cc4ccc(OC(F)(F)F)cc4)c3C[C@H]2CN1C(=O)c1ccccc1
Response given: -0.781 (inactive)

Challenge: Indicate the recorded z-score value for this compound: C=CCN1C(=O)[C@@]2(O[C@@H](CCO)[C@H]([Si](C)(C)c3ccc(OC)cc3)[C@H]2C)c2cc(NC(=O)[C@H](C)O)ccc21
Response given: 0.18 (inactive)

Challenge: # return recorded z-score for entry CCCC[C@H]1OB(O)C[C@H]2C1=C(COc1ccccc1)Cn1c(=O)n(-c3ccccc3)c(=O)n12
Response given: -0.247 (inactive)

Challenge: Annotate the compound CN1C(=O)C2C=CC(C(O)c3cccc4ccccc34)N(NC(=O)OC(C)(C)C)C2C1=O (stereo not drawn) with its measured z-score.
Response given: -0.397 (inactive)

Challenge: Give recorded z-score. O=C1O[C@H](c2ccccc2)[C@H](c2ccccc2)N2[C@H]1[C@@H](C(=O)NC[C@H](O)c1ccccc1)[C@]1(C(=O)Nc3ccccc31)[C@H]2c1ccccc1OCCO
Response given: -0.538 (inactive)

Challenge: Please report z-score for the following compound: NC(=O)[C@@H]1[C@H]2C(=O)O[C@H](c3ccccc3)[C@H](c3ccccc3)N2[C@H](c2ccccc2OCCO)[C@@]12C(=O)Nc1ccc(C#CCCO)cc12
Response given: -0.161 (inactive)

Challenge: Consider the compound O=C1O[C@H](c2ccccc2)[C@H](c2ccccc2)N2[C@H]1[C@@H](C(=O)N1CCN(c3ncccn3)CC1)[C@]1(C(=O)Nc3ccc(C#CCCO)cc31)[C@H]2c1ccccc1OCCO . State its measured z-score.
Response given: -0.529 (inactive)

Challenge: For the compound CCOC(=O)C[C@H]1[C@H](OC(=O)Cc2ccc3c(c2)OCO3)[C@@H](NC(=O)c2ccccc2)c2cc(OCCCO)ccc2N1C(=O)c1ccc2ccccc2n1 , give its measured z-score value.
Response given: -0.259 (inactive)

Challenge: State, in one line, measured z-score of COc1ccc([Si](C)(C)[C@H]2[C@H](CCO)O[C@@]3(C(=O)N(Cc4cccc(N5CCOC5=O)c4)c4ccccc43)[C@@H]2C)cc1
Response given: -0.5 (inactive)

Challenge: Please list z-score recorded for the compound CC(C)C[C@@H]1NC(=O)[C@@]23C(=O)N[C@@H](Cc4ccccc4)C2[C@H](C)[C@@]2(C)O[C@H]2C3/C=C/C/C=C\CNC(=O)[C@@H]2CCCN2C1=O (stereo partly drawn)
Response given: 0.275 (inactive)

Challenge: Give the value of z-score reported for the following: CN(C)C(=O)[C@@]1(CCC(=O)OC(C)(C)C)COC(c2ccc(OCCCO)cc2)=N1
Response given: 0.337 (inactive)

Challenge: Please report the measured z-score for CC(C)CN1C(=O)[C@@]2(Cc3ccccc31)c1ccccc1C(=O)N(Cc1ccccc1)[C@H]2c1ccc(CO)cc1
Response given: -0.197 (inactive)

Challenge: Give the reported value of z-score for this record: COC(=O)c1c(CC[C@@H](CO)NC(=O)N[C@@H](C)Cn2cc(C3(O)CCCC3)nn2)oc(C(C)=O)c1C(=O)OC
Response given: 0.929 (inactive)
